Cited source for all entries: ChEMBL document CHEMBL3108694

Assay: Inhibition of TNKS in human DLD1 cells expressing APC mutant assessed as inhibition of super-Topflash reporter gene transcription after 40 to 48 hrs by dual-glo luciferase reporter gene assay
Type: cell-based
Conditions: DLD-1
Measured IC50, listed per entry.
METRIC_NAME: IC50 (nM)

[[record]]
smiles_notation = "O=C(CCSc1nc2c(c(=O)[nH]1)CCCC2)N[C@H]1CC[C@H](c2nnc(-c3ccccc3)o2)CC1"
uom = "nM"
observed = 1.3

[[record]]
smiles_notation = "O=C(CCSc1nc2ccccc2c(=O)[nH]1)N[C@H]1CC[C@H](Oc2ccncc2)CC1"
uom = "nM"
observed = 0.7

[[record]]
smiles_notation = "N#Cc1ccc(O[C@H]2CC[C@H](NC(=O)CCSc3nc4ccccc4c(=O)[nH]3)CC2)cc1"
uom = "nM"
observed = 0.3

[[record]]
smiles_notation = "N#Cc1ccc(O[C@H]2CC[C@H](NC(=O)CCSc3nc4ccccc4c(=O)[nH]3)CC2)cc1Cl"
uom = "nM"
observed = 1.1

[[record]]
smiles_notation = "O=C(CCSc1nc2ccccc2c(=O)[nH]1)N[C@H]1CC[C@H](c2nnc(-c3ccccc3)o2)CC1"
uom = "nM"
observed = 0.6


---

Assay: Oral bioavailability in rat at 2 mg/kg
Type: ADME, organism-based
Settings: in vivo
Measured bioavailability, listed per entry.
METRIC_NAME: bioavailability (%)

[[record]]
smiles_notation = "N#Cc1ccc(O[C@H]2CC[C@H](NC(=O)CCSc3nc4ccccc4c(=O)[nH]3)CC2)cc1"
observed = 21

[[record]]
smiles_notation = "O=C(CCSc1nc2ccccc2c(=O)[nH]1)N[C@H]1CC[C@H](c2nnc(-c3ccccc3)o2)CC1"
observed = 13


---

Test: Half life in rat at 0.5 mg/kg, iv
Assay type: ADME, organism-based
Set-up: dose 0.5 mg/kg, route intravenous
Conditions: in vivo
Measured half-life, listed per entry.
METRIC_NAME: half-life (h)

[[record]]
smiles_notation = "O=C(CCSc1nc2ccccc2c(=O)[nH]1)N[C@H]1CC[C@H](Oc2ccncc2)CC1"
observed = 0.7

[[record]]
smiles_notation = "O=C(CCSc1nc2ccccc2c(=O)[nH]1)N[C@H]1CC[C@H](c2nnc(-c3ccccc3)o2)CC1"
observed = 1.8

[[record]]
smiles_notation = "N#Cc1ccc(O[C@H]2CC[C@H](NC(=O)CCSc3nc4ccccc4c(=O)[nH]3)CC2)cc1"
observed = 2.8


---

Experiment: Half life in CD-1 mouse plasma at 1 uM by LC-MS/MS analysis
Format: ADME, cell-free
Measured half-life at 1 µM, listed per entry.
METRIC_NAME: half-life at 1 µM (h)

[[record]]
smiles_notation = "Cn1nc(-c2ccc(NC(=O)CCc3nc4ccccc4c(=O)[nH]3)cc2)c2ccccc21"
relation_symbol = ">"
observed = 16.7

[[record]]
smiles_notation = "COc1ccccc1NC(=O)c1ccc(NC(=O)CCc2nc3ccccc3c(=O)[nH]2)cc1C"
relation_symbol = "="
observed = 0.717

[[record]]
smiles_notation = "COc1cccc(C)c1NC(=O)c1ccc(NC(=O)CCc2nc3ccccc3c(=O)[nH]2)cc1"
relation_symbol = "="
observed = 4.5

[[record]]
smiles_notation = "O=C(CCc1nc2ccccc2c(=O)[nH]1)Nc1ccc(-c2nnc(-c3ccccc3)o2)cc1"
relation_symbol = "="
observed = 2.03

[[record]]
smiles_notation = "COc1ccccc1NC(=O)[C@H]1CC[C@@H](NC(=O)CCc2nc3ccccc3c(=O)[nH]2)CC1"
relation_symbol = ">"
observed = 16.7

[[record]]
smiles_notation = "COc1ccccc1NC(=O)[C@H]1CC[C@H](NC(=O)CCc2nc3ccccc3c(=O)[nH]2)CC1"
relation_symbol = ">"
observed = 16.7


---

Measured Tmax, listed per entry.
Assay: Tmax in CD-1 mouse at 30 mg/kg, po
Assay type: ADME, organism-based
Design: dose 30 mg/kg, route oral
Conditions: in vivo
METRIC_NAME: Tmax (h)

[[record]]
smiles_notation = "O=C(CCSc1nc2ccccc2c(=O)[nH]1)N[C@H]1CC[C@H](c2nnc(-c3ccccc3)o2)CC1"
observed = 0.58

[[record]]
smiles_notation = "N#Cc1ccc(O[C@H]2CC[C@H](NC(=O)CCSc3nc4ccccc4c(=O)[nH]3)CC2)cc1"
observed = 1.5

[[record]]
smiles_notation = "O=C(CCSc1nc2c(c(=O)[nH]1)CCCC2)N[C@H]1CC[C@H](c2nnc(-c3ccccc3)o2)CC1"
observed = 3.23

[[record]]
smiles_notation = "N#Cc1ccc(O[C@H]2CC[C@H](NC(=O)CCSc3nc4ccccc4c(=O)[nH]3)CC2)cc1Cl"
observed = 1.58

[[record]]
smiles_notation = "O=C(CCSc1nc2ccccc2c(=O)[nH]1)N[C@H]1CC[C@H](Oc2ccncc2)CC1"
observed = 0.67


---

Assay: Cmax in CD-1 mouse at 30 mg/kg, po
Type: ADME, organism-based
Set-up: dose 30 mg/kg, route oral
Details: in vivo
Measured Cmax, listed per entry.
METRIC_NAME: Cmax (µM)

[[record]]
smiles_notation = "O=C(CCSc1nc2c(c(=O)[nH]1)CCCC2)N[C@H]1CC[C@H](c2nnc(-c3ccccc3)o2)CC1"
observed = 3.6

[[record]]
smiles_notation = "O=C(CCSc1nc2ccccc2c(=O)[nH]1)N[C@H]1CC[C@H](Oc2ccncc2)CC1"
observed = 7

[[record]]
smiles_notation = "O=C(CCSc1nc2ccccc2c(=O)[nH]1)N[C@H]1CC[C@H](c2nnc(-c3ccccc3)o2)CC1"
observed = 18.7

[[record]]
smiles_notation = "N#Cc1ccc(O[C@H]2CC[C@H](NC(=O)CCSc3nc4ccccc4c(=O)[nH]3)CC2)cc1Cl"
observed = 15.1

[[record]]
smiles_notation = "N#Cc1ccc(O[C@H]2CC[C@H](NC(=O)CCSc3nc4ccccc4c(=O)[nH]3)CC2)cc1"
observed = 24.2


---

Measured half-life at 1 µM, listed per entry.
Test: Half life in CD-1 mouse plasma at 1 uM by LC-MS/MS analysis
Assay type: ADME, cell-free
METRIC_NAME: half-life at 1 µM

[[record]]
smiles_notation = "COc1ccccc1N(C)C(=O)c1ccc(NC(=O)CCc2nc3ccccc3c(=O)[nH]2)cc1"
observed = "38 min"

[[record]]
smiles_notation = "COc1ccccc1NC(=O)c1ccc(NC(=O)CCc2nc3ccccc3c(=O)[nH]2)cc1"
observed = "40 min"

[[record]]
smiles_notation = "O=C(CCc1nc2ccccc2c(=O)[nH]1)Nc1ccc(-c2c[nH]c(-c3ccccc3)n2)cc1"
observed = "53 min"

[[record]]
smiles_notation = "Cn1c(-c2ccc(NC(=O)CCc3nc4ccccc4c(=O)[nH]3)cc2)nc2ccccc21"
observed = "> 500 min"

[[record]]
smiles_notation = "O=C(CCc1nc2ccccc2c(=O)[nH]1)N[C@H]1CC[C@H](c2nnc(-c3ccccc3)o2)CC1"
observed = "> 500 min"


---

Assay: Solubility in fasted state simulated intestinal fluid at pH 6.8
Type: ADME
METRIC_NAME: solubility (mg/mL)

[[record]]
smiles_notation = "O=C(CCc1nc2ccccc2c(=O)[nH]1)N[C@H]1CC[C@H](c2nnc(-c3ccccc3)o2)CC1"
metric_name = "solubility"
observed = 0.0162

[[record]]
smiles_notation = "O=C(C[C@H]1CCCN1Cc1nc2ccccc2c(=O)[nH]1)N[C@H]1CC[C@H](c2nnc(-c3ccccc3)o2)CC1"
metric_name = "solubility"
observed = 0.042

[[record]]
smiles_notation = "O=C(CCCc1nc2ccccc2c(=O)[nH]1)N[C@H]1CC[C@H](c2nnc(-c3ccccc3)o2)CC1"
metric_name = "solubility"
observed = 0.011

[[record]]
smiles_notation = "COc1ccccc1NC(=O)c1ccc(NC(=O)CCc2nc3ccccc3c(=O)[nH]2)cc1"
metric_name = "solubility"
observed = 0.0066


---

Measured clearance, listed per entry.
Test: Clearance in rat at 0.5 mg/kg, iv
Format: ADME, organism-based
Design: dose 0.5 mg/kg, route intravenous
Conditions: in vivo
METRIC_NAME: clearance

[[record]]
smiles_notation = "O=C(CCSc1nc2ccccc2c(=O)[nH]1)N[C@H]1CC[C@H](Oc2ccncc2)CC1"
metric_name = "clearance"
observed = "11 mL/min/kg"

[[record]]
smiles_notation = "N#Cc1ccc(O[C@H]2CC[C@H](NC(=O)CCSc3nc4ccccc4c(=O)[nH]3)CC2)cc1"
metric_name = "clearance"
observed = "2 mL/min/kg"

[[record]]
smiles_notation = "O=C(CCSc1nc2ccccc2c(=O)[nH]1)N[C@H]1CC[C@H](c2nnc(-c3ccccc3)o2)CC1"
metric_name = "clearance"
observed = "13.8 mL/min/kg"


---

Test: Intrinsic clearance in rat liver microsomes at 1 uM after 30 mins
Type: ADME
Settings: read-out: CLH
METRIC_NAME: microsomal CLint at 1 µM (µL/min/mg)

[[record]]
smiles_notation = "O=C(CCCc1nc2ccccc2c(=O)[nH]1)N[C@H]1CC[C@H](c2nnc(-c3ccccc3)o2)CC1"
metric_name = "microsomal CLint at 1 µM"
relation_symbol = "="
observed = 20

[[record]]
smiles_notation = "O=C(CCc1nc2c(c(=O)[nH]1)CCCN2)N[C@H]1CC[C@H](c2nnc(-c3ccccc3)o2)CC1"
metric_name = "microsomal CLint at 1 µM"
relation_symbol = "<"
observed = 14

[[record]]
smiles_notation = "O=C(CCSc1nc2c(c(=O)[nH]1)CCCC2)N[C@H]1CC[C@H](c2nnc(-c3ccccc3)o2)CC1"
metric_name = "microsomal CLint at 1 µM"
relation_symbol = "="
observed = 60

[[record]]
smiles_notation = "O=C(CCSc1nc2ccccc2c(=O)[nH]1)N[C@H]1CC[C@H](c2nnc(-c3ccccc3)o2)CC1"
metric_name = "microsomal CLint at 1 µM"
relation_symbol = "="
observed = 57

[[record]]
smiles_notation = "O=C(CCCSc1nc2ccccc2c(=O)[nH]1)N[C@H]1CC[C@H](c2nnc(-c3ccccc3)o2)CC1"
metric_name = "microsomal CLint at 1 µM"
relation_symbol = "="
observed = 159

[[record]]
smiles_notation = "O=C(CCSc1nccc(=O)[nH]1)N[C@H]1CC[C@H](c2nnc(-c3ccccc3)o2)CC1"
metric_name = "microsomal CLint at 1 µM"
relation_symbol = "<"
observed = 14

[[record]]
smiles_notation = "O=C(CCc1nc2ncccc2c(=O)[nH]1)N[C@H]1CC[C@H](c2nnc(-c3ccccc3)o2)CC1"
metric_name = "microsomal CLint at 1 µM"
relation_symbol = "="
observed = 24

[[record]]
smiles_notation = "O=C(CSc1nc2ccccc2c(=O)[nH]1)N[C@H]1CC[C@H](c2nnc(-c3ccccc3)o2)CC1"
metric_name = "microsomal CLint at 1 µM"
relation_symbol = "="
observed = 20

[[record]]
smiles_notation = "O=C(CCc1nc2ccccc2c(=O)[nH]1)N[C@H]1CC[C@H](c2nnc(-c3ccccc3)o2)CC1"
metric_name = "microsomal CLint at 1 µM"
relation_symbol = "<"
observed = 14

[[record]]
smiles_notation = "O=C(N[C@H]1CC[C@H](c2nnc(-c3ccccc3)o2)CC1)[C@@H]1CCCN(Cc2nc3ccccc3c(=O)[nH]2)C1"
metric_name = "microsomal CLint at 1 µM"
relation_symbol = "="
observed = 206

[[record]]
smiles_notation = "O=C(C[C@H]1CCCN1Cc1nc2ccccc2c(=O)[nH]1)N[C@H]1CC[C@H](c2nnc(-c3ccccc3)o2)CC1"
metric_name = "microsomal CLint at 1 µM"
relation_symbol = ">"
observed = 399

